B1: C20orf112 (parent)
chain: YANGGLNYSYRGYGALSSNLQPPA

Variants of: B1
Experiment: protein stability index of a GFP-peptide fusion (GPS, HEK-293T) (PSI 1-6); higher = more stable;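 further: lentivirally expressed fusions sorted by FACS into six bins by GFP to DsRed ratio, PSI derived from sequencing read proportions per bin multiplied by bin number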
Settings: c terminus: a fixed tail appended
Reported protein stability index values for the following variants.
Keep it simple and answer with nothing but the number.

| Variant Id | protein stability index |
| --- | --- |
| Y13S | 1.96 |
| N19T | 1.91 |
| Y8G | 2.19 |

Quick check: protein stability index of P23T ?
1.6

Please give the result for N7S too.
2.38

Please give the result for Q21V too.
1.59

Please give the result for S17A too.
1.58

Please give the result for N3L too.
2.25

Where do the numbers come from? From the supplement of paper PMC10567573.
